test: NCI Yeast Anticancer Drug Screen. Data for the mec2-1 strain (AID 157); settings: S. cerevisiae mec2-1 strain, at 5.0 µM (retest, dose inferred, filed as 0.5)
Compounds without any hit were thinned out: in the full panel of roughly 79,000, 15% have a hit. Calls of active or inactive are those of the source. Rule as the data show it: active = growth inhibition above about 70%; inactive = the rest.
Select the matching outcome among 1.0 for active, 0.0 for inactive

CCCCCCCCCCCC(O)S(=O)(=O)O (stereo unspecified) ... 0.0
COc1cccc2c1C(=O)c1c(O)c3c(c(O)c1C2=O)CC(O)(C(O)CO)CC3OC1CC(N2CCOCC2)C(O)C(C)O1 (stereo unspecified) ... 1.0
CC1CC(C)(C)CC(OCCN2CCCCC2)(c2ccccc2)C1 (stereo unspecified) ... 0.0

Qu. Tell me the assay call for CN1C(=O)c2ccc3ccccc3c2C1=O please.
Ans. 0.0

Qu. Ok, now c1ccc(CCN2CCc3ccccc3C2)cc1
Ans. 0.0

Qu. Ok, now COC1=C(OC)C(=O)C(Sc2ccc3ccccc3c2)=CC1=O
Ans. 0.0

Qu. Ok, now Brc1ccccc1-c1ncc(-c2ccccc2)o1
Ans. 0.0

Qu. Ok, now CC(=O)OCC1OC2OC(=O)NC2C(OC(C)=O)C1OC(C)=O (stereo unspecified)
Ans. 0.0

Qu. Ok, now COc1c(O)c(C=O)c(Br)c(C=O)c1O
Ans. 0.0

Qu. Ok, now OC1(c2ccccc2)CCCc2ccc(Cl)cc21 (stereo unspecified)
Ans. 0.0

Qu. Ok, now CCOC(=O)/C(=C\c1ccc(C#N)cc1)C(C)=O
Ans. 0.0

Qu. Ok, now O=c1ccc(=O)n(-c2ccccc2)[nH]1
Ans. 0.0
